Values were extracted from patent US20230118307A1.

Target Entity: human GLP-1 receptor (human, UniProt P43220 24-463)
Experiment Description: cell-based or functional assay
Positions of bridges follow the written chain, without caps; N, C: chain ends. Non-standard residues stand in square brackets, D forms with d. No end group written: not given here. *: point of attachment. Acetyl(2-(4-imidazolyl)) = O=C(Cc1c[nH]cn1)*; Aib = CC(C)(N)C(=O)O
Measured Parameter: In vitro Activity Compared to Native Peptide (%) vs. GLP-1
# unit: % | format: bare number

So, Y[Aib]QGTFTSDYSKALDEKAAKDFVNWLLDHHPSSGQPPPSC (bridge 16-20) [triple agonist of SEQ ID NO: 99] ? Its In vitro Activity Compared to Native Peptide (%) vs. GLP-1 was 20.9

So, {Acetyl(2-(4-imidazolyl))}-[Aib]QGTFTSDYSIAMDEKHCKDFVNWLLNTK (bridge 15-19) [triple agonist of SEQ ID NO: 60] ? Its In vitro Activity Compared to Native Peptide (%) vs. GLP-1 was 106

So, [Acetyl(2-(4-imidazolyl))][Aib]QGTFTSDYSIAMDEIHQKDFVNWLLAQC (bridge 16-20) [triple agonist of SEQ ID NO: 85] ? Its In vitro Activity Compared to Native Peptide (%) vs. GLP-1 was 4.3

So, H[Aib]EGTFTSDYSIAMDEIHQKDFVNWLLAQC (bridge 16-20) [triple agonist of SEQ ID NO: 53] ? Its In vitro Activity Compared to Native Peptide (%) vs. GLP-1 was 161
